Below is a list of entries, each paired with its recorded IC50 value.
subject_of_test: active p38 alpha enzyme (Upstate Biotechnology) (Homo sapiens, UniProt Q16539)
Construct: purchased Upstate Biotechnology
Sequence (Q16539 whole entry): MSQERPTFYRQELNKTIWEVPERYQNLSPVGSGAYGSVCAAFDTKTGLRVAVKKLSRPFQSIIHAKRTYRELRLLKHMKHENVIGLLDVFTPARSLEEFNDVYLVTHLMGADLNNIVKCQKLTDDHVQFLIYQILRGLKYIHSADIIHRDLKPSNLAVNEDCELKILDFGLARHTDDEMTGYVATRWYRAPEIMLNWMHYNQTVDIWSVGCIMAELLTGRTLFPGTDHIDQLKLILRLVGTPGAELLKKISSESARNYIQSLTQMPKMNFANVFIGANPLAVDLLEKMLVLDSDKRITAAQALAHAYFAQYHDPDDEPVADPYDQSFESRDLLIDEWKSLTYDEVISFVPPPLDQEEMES
test_protocol: p38α biochemical assay (ATP turnover, luminescent detection, Cambrex PKlight)
setup_conditions: p38α biochemical assay, Table 1 Biological Activity

# compound, IC50
data = [
    ("Cc1ccc(C(=O)N2CCN(Cc3nc(-c4ccc(F)cc4)c(-c4nc(C(=O)NC(C)C)cs4)o3)CC2)cc1F", "> 1000 nM"),
    ("CC(C)NC(=O)c1csc(-c2oc(CNC(=O)C3CN(C(=O)OC(C)(C)C)CCN3)nc2-c2ccc(F)cc2)n1 (centres unmarked) [Example 315]", "≤ 1000 nM"),
    ("CC(=O)c1cccc(C(=O)N2CCN(Cc3nc(-c4ccc(F)cc4)c(-c4nc(C(=O)NC(C)C)cs4)o3)CC2)c1", "> 1000 nM"),
    ("CC(C)NC(=O)c1csc(-c2oc(CNC(=O)c3cc4ccccc4s3)nc2-c2ccc(F)cc2)n1", "≤ 1000 nM"),
    ("CC(C)NC(=O)c1csc(-c2c(-c3ccc(F)cc3)noc2CNC(=O)c2ccc(C(C)C)cc2)n1", "> 1000 nM"),
]

###

Below is a list of entries, each paired with its recorded IC50 value.
subject_of_test: active p38 alpha enzyme (Upstate Biotechnology) (Homo sapiens, UniProt Q16539)
Construct: purchased Upstate Biotechnology
test_protocol: p38α biochemical assay (ATP turnover, luminescent detection, Cambrex PKlight)
setup_conditions: p38α kinase; Table 1 Biological Activity

# structure_smiles, IC50
data = [
    ("CC(C)NC(=O)c1csc(-c2c(-c3ccc(F)cc3)n[nH]c2C2CCN(C(=O)c3ccc([N+](=O)[O-])cc3Cl)CC2)n1", "> 1 µM"),
    ("CC(=O)Nc1ccc(NCc2nc(-c3ccc(F)cc3)c(-c3nc(C(=O)NC(C)C)cs3)o2)cn1", "> 1 µM"),
    ("O=C(NCCc1ccccc1Cl)c1csc(-c2c(-c3ccc(F)cc3)n[nH]c2C2CCNCC2)n1", "> 1 µM"),
    ("Cc1ccc(S(=O)(=O)NCCNC(=O)c2csc(-c3sc(C)nc3-c3ccc(F)cc3)n2)cc1", "≤ 1 µM"),
    ("Cc1nc(-c2ccc(F)cc2)c(-c2nc(C(=O)Nc3ccccc3-n3cccc3)cs2)s1", "> 1 µM"),
]

###

Below is a list of entries, each paired with its recorded IC50 value.
subject_of_test: active p38 alpha enzyme (Upstate Biotechnology) (Homo sapiens, UniProt Q16539)
Construct: purchased Upstate Biotechnology
test_protocol: p38α biochemical assay (ATP turnover, luminescent detection, Cambrex PKlight)
setup_conditions: p38α biochemical assay, Table 1 Biological Activity

# molecule, IC50
records = [
    ("COc1cccc(O)c1C(=O)NCc1nc(-c2ccc(F)cc2)c(-c2nc(C(=O)NC(C)C)cs2)o1 [Example 186]", "> 1000 nM"),
    ("COc1ccccc1CC(=O)NCc1nc(-c2ccc(F)cc2)c(-c2nc(C(=O)NC(C)C)cs2)o1 [Example 182]", "≤ 1000 nM"),
    ("COC(=O)c1ccc(C(=O)NCc2nc(-c3ccc(F)cc3)c(-c3nc(C(=O)NC(C)C)cs3)o2)cc1 [Example 214]", "> 1000 nM"),
    ("CC(C)NC(=O)c1csc(-c2oc(CNC(=O)C(Cl)(Cl)Cl)nc2-c2ccc(F)cc2)n1 [Example 165]", "> 1000 nM"),
]

###

subject_of_test: active p38 alpha enzyme (Upstate Biotechnology) (Homo sapiens, UniProt Q16539)
Construct: purchased Upstate Biotechnology
test_protocol: p38α biochemical assay (ATP turnover, luminescent detection, Cambrex PKlight)
setup_conditions: p38α biochemical assay, Table 1 Biological Activity
observation_type: IC50

# compound, endpoint_result
measured = [
    ("CC(C)NC(=O)c1csc(-c2oc(CN3CCN(C(=O)CCc4cccc(C(F)(F)F)c4)CC3)nc2-c2ccc(F)cc2)n1 [Example 537]", "> 1000 nM"),
    ("Cc1nc(-c2ccc(F)cc2)c(-c2nc(C(=O)NCCCN3CCOCC3)cs2)s1 [Example 58]", "> 1000 nM"),
    ("CC(C)NC(=O)c1csc(-c2oc(CNC(=O)c3ccc(Oc4ccccc4)cc3)nc2-c2ccc(F)cc2)n1 [Example 290]", "> 1000 nM"),
    ("Cc1ccccc1C(=O)NCc1nc(-c2ccc(F)cc2)c(-c2nc(C(=O)NC(C)C)cs2)o1 [Example 122]", "> 1000 nM"),
    ("CC(C)NC(=O)c1csc(-c2oc(CN3CCN(C(=O)c4ccc5cccc(O)c5n4)CC3)nc2-c2ccc(F)cc2)n1 [Example 483]", "≤ 1000 nM"),
]

###

subject_of_test: active p38 alpha enzyme (Upstate Biotechnology) (Homo sapiens, UniProt Q16539)
Construct: purchased Upstate Biotechnology
test_protocol: p38α biochemical assay (ATP turnover, luminescent detection, Cambrex PKlight)
setup_conditions: p38α kinase; Table 1 Biological Activity
pIC50: −log10 of the molar value.

# compound, subject_of_test, pIC50
measured = [
    ("CCN(Cc1ccccc1)C(=O)c1csc(-c2sc(C)nc2-c2ccc(F)cc2)n1 [Example 1875]", "active p38 alpha enzyme (Upstate Biotechnology) (Homo sapiens, UniProt Q16539)", "< 6.00"),
    ("Cc1nc(-c2ccc(F)cc2)c(-c2nc(C(=O)NCc3ccc(Cl)cc3)cs2)s1 [Example 1787]", "active p38 alpha enzyme (Upstate Biotechnology) (Homo sapiens, UniProt Q16539)", "≥ 6.00"),
    ("CC(C)NC(=O)c1csc(-c2c(-c3ccc(F)cc3)n[nH]c2C2CCN(C(=O)CC3Cc4ccccc4C3)CC2)n1 [Example 917]", "active p38 alpha enzyme (Upstate Biotechnology) (Homo sapiens, UniProt Q16539)", "< 6.00"),
]

###

subject_of_test: active p38 alpha enzyme (Upstate Biotechnology) (Homo sapiens, UniProt Q16539)
Construct: purchased Upstate Biotechnology
test_protocol: p38α biochemical assay (ATP turnover, luminescent detection, Cambrex PKlight)
setup_conditions: p38α biochemical assay, Table 1 Biological Activity

# structure_smiles, IC50
measured = [
    ("COc1cc(Cl)ccc1C(=O)NCc1nc(-c2ccc(F)cc2)c(-c2nc(C(=O)NC(C)C)cs2)o1", "> 1000 nM"),
    ("CC(C)NC(=O)c1csc(-c2oc(CN3CCN(C(=O)c4cscn4)CC3)nc2-c2ccc(F)cc2)n1", "≤ 1000 nM"),
    ("Cc1nc(-c2ccc(F)cc2)c(-c2nc(C(=O)NCCCO)cs2)s1", "≤ 1000 nM"),
    ("Cc1[nH]nc(-c2ccc(F)cc2)c1-c1nc(C(=O)NCc2cccnc2)cs1", "≤ 1000 nM"),
    ("CC(C)NC(=O)c1csc(-c2oc(CN3CCN(C(=O)c4ccc(Cl)cc4O)CC3)nc2-c2ccc(F)cc2)n1", "≤ 1000 nM"),
    ("CC(C)NC(=O)c1csc(-c2oc(CN)nc2-c2ccc(F)cc2)n1", "> 1000 nM"),
    ("CC(C)NC(=O)c1csc(-c2c(-c3ccc(F)cc3)noc2CNC(=O)c2cc3ccccc3cc2O)n1", "> 1000 nM"),
    ("Cc1onc(-c2ccc(Cl)cc2)c1-c1ccn(C(=O)NC2CCCC2)n1", "≤ 1000 nM"),
    ("COc1ccccc1CC(=O)NCc1onc(-c2ccc(F)cc2)c1-c1nc(C(=O)NC(C)C)cs1", "> 1000 nM"),
    ("CC(C)NC(=O)c1csc(-c2c(-c3ccc(F)cc3)noc2CNC(=O)c2ccc(F)cc2Cl)n1", "> 1000 nM"),
    ("CCOc1ccc2ccccc2c1C(=O)N1CCN(Cc2nc(-c3ccc(F)cc3)c(-c3nc(C(=O)NC(C)C)cs3)o2)CC1", "≤ 1000 nM"),
    ("CC(C)NC(=O)c1csc(-c2c(-c3ccc(F)cc3)noc2CNC(=O)c2cccc(F)c2F)n1", "> 1000 nM"),
    ("Cc1cc(C)c(C(=O)NCc2onc(-c3ccc(F)cc3)c2-c2nc(C(=O)NC(C)C)cs2)c(C)c1", "> 1000 nM"),
    ("CC(C)NC(=O)c1csc(-c2oc(CNC(=O)c3cc(O)ccc3[N+](=O)[O-])nc2-c2ccc(F)cc2)n1", "≤ 1000 nM"),
    ("CC(=O)NCc1nc(-c2ccc(F)cc2)c(-c2nc(C(=O)NC(C)C)cs2)[nH]1", "≤ 1000 nM"),
    ("C#CCNC(=O)c1csc(-c2c(-c3ccc(F)cc3)ncn2C2CCNCC2)n1", "≤ 1000 nM"),
    ("CC(C)NC(=O)c1csc(-c2c(-c3ccc(F)cc3)noc2CNC(=O)CC#N)n1", "≤ 1000 nM"),
    ("CC(C)NC(=O)n1ccc(-c2c(-c3ccc(F)cc3)noc2CN(C)C)n1", "≤ 1000 nM"),
    ("Cc1ccc(C)c(C(=O)NCc2nc(-c3ccc(F)cc3)c(-c3nc(C(=O)NC(C)C)cs3)o2)c1", "> 1000 nM"),
    ("CCc1ccc(C(=O)NCc2nc(-c3ccc(F)cc3)c(-c3nc(C(=O)NC(C)C)cs3)o2)cc1", "> 1000 nM"),
    ("CC(C)NC(=O)c1csc(-c2oc(CNC(=O)Cc3ccc(O)c(Cl)c3)nc2-c2ccc(F)cc2)n1", "≤ 1000 nM"),
    ("COc1ccc(C(=O)NCc2onc(-c3ccc(F)cc3)c2-c2nc(C(=O)NC(C)C)cs2)cc1O", "> 1000 nM"),
    ("CC(C)NC(=O)c1csc(-c2oc(CN3CCN(C(=O)c4cc(Cl)ccc4Cl)CC3)nc2-c2ccc(F)cc2)n1", "> 1000 nM"),
]
